Overview of recorded self-splicing fitness (ln) for various sequences
Procedure text: self-splicing fitness, log relative to wild type (ln ratio); higher = more splicing; Tetrahymena group I intron in knt gene, E. coli kanamycin selection, DiMSum; sequences stand for … in CUCUCU…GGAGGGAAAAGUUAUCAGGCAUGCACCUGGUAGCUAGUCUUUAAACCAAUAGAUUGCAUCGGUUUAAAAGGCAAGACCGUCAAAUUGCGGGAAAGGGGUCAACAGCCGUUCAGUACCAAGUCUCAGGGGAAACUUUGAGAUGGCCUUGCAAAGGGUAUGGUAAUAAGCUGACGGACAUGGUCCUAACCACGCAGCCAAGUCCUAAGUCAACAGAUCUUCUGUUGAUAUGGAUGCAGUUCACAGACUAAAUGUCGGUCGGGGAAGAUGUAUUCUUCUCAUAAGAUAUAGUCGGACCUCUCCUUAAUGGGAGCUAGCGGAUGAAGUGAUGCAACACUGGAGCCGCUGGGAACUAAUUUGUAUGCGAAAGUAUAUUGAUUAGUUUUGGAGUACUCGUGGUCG;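 note: selection with 25 µg/mL kanamycin versus none on LB agar overnight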
Setup conditions: 37 °C
Measurement kind: self-splicing fitness (ln)

Primary sequence | Measurement kind | Obs value
CUCGAGCAAUAUUACGUUCU | self-splicing fitness (ln) | -2.8
ACCCAGCAAUAUUACGGAGA | self-splicing fitness (ln) | 0.122
UGACAGCAAUAUUACGACGU | self-splicing fitness (ln) | -0.473
ACGAAGCAAUAUUACGAACC | self-splicing fitness (ln) | -0.895
GAGUAGCAAUAUUACGAGCU | self-splicing fitness (ln) | -0.0858
GCCAAGCAAUAUUACGCCAC | self-splicing fitness (ln) | -1.25
AAAUAGCAAUAUUACGUAUC | self-splicing fitness (ln) | -1.51
UUGCAGCAAUAUUACGAUCG | self-splicing fitness (ln) | -0.473

====

Procedure text: self-splicing fitness, log relative to wild type (ln ratio); higher = more splicing; Tetrahymena group I intron in knt gene, E. coli kanamycin selection, DiMSum; sequences stand for … in CUCUCU…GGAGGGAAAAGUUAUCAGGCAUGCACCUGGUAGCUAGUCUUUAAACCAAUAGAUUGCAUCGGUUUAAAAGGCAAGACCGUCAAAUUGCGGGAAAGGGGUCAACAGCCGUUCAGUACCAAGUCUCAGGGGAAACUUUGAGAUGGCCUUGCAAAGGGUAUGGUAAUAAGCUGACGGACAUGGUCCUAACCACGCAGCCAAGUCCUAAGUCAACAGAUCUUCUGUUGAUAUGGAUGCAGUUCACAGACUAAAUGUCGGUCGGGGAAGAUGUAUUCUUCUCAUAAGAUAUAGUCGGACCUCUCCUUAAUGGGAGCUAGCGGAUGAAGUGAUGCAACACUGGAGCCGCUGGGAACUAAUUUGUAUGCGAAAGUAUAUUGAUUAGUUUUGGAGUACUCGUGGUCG
Setup conditions: 30 °C
If the reported self-splicing fitness (ln) equals or exceeds -3, assign Condition met. If not, assign Condition not met.

Primary sequence | Assigned category
CUCAAGCAAUAUUACGGUUC | Condition not met
CUAAAGCAAUAUUACGAACA | Condition met
ACACAGCAAUAUUACGUUUA | Condition met
AGCGAGCAAUAUUACGCACU | Condition met
AUCUAGCAAUAUUACGGCUC | Condition met
CAGAAGCAAUAUUACGCUAU | Condition not met
ACUCAGCAAUAUUACGGUAC | Condition met
AUUUAGCAAUAUUACGCUGA | Condition met
UAAAAGCAAUAUUACGAAUG | Condition met
UUGCAGCAAUAUUACGAAGA | Condition met
UAUCAGCAAUAUUACGGAGC | Condition not met
CACUAGCAAUAUUACGUUCG | Condition met
UUUGAGCAAUAUUACGGUUU | Condition not met
CCGAAGCAAUAUUACGUAGU | Condition not met
CGUGAGCAAUAUUACGUGGC | Condition not met
UUAUAGCAAUAUUACGGAGG | Condition met
CACCAGCAAUAUUACGGAUC | Condition met
UCAAAGCAAUAUUACGACGA | Condition met
UUUAAGCAAUAUUACGGAAU | Condition not met
UGUCAGCAAUAUUACGUGCC | Condition met
GAUCAGCAAUAUUACGUGUC | Condition met
GGCUAGCAAUAUUACGAAGU | Condition met
CUACAGCAAUAUUACGGCAU | Condition not met
ACCUAGCAAUAUUACGUGUC | Condition not met
UUCUAGCAAUAUUACGCUGG | Condition not met
ACGAAGCAAUAUUACGGUAU | Condition met
CUCAAGCAAUAUUACGAGAC | Condition not met
ACGAAGCAAUAUUACGACCC | Condition met
GGAAAGCAAUAUUACGCUGC | Condition not met
GUAGAGCAAUAUUACGUGAA | Condition met
CGGAAGCAAUAUUACGGGAU | Condition not met
CCUUAGCAAUAUUACGGUGU | Condition not met
AGAGAGCAAUAUUACGCUGA | Condition met
UCUGAGCAAUAUUACGAAAU | Condition not met
UGGCAGCAAUAUUACGAGUU | Condition not met
AGUGAGCAAUAUUACGAGUA | Condition not met
CGCCAGCAAUAUUACGUCCU | Condition not met
CAGAAGCAAUAUUACGGUAG | Condition met
UCCCAGCAAUAUUACGUUCU | Condition not met
UCAAAGCAAUAUUACGUUAA | Condition not met
CUGCAGCAAUAUUACGUCAU | Condition met
UAGUAGCAAUAUUACGGUCA | Condition met
UUGUAGCAAUAUUACGCUUG | Condition met
AAGGAGCAAUAUUACGUGUG | Condition not met
CCGUAGCAAUAUUACGUCCG | Condition met
AACAAGCAAUAUUACGACGG | Condition met
UGCCAGCAAUAUUACGUAAG | Condition met
AUUGAGCAAUAUUACGAGUU | Condition met
UUUAAGCAAUAUUACGGGAC | Condition met
CCAUAGCAAUAUUACGGUGU | Condition not met
CCAAAGCAAUAUUACGUCCA | Condition met
GGUUAGCAAUAUUACGUUAA | Condition met

====

Procedure text: self-splicing fitness, log relative to wild type (ln ratio); higher = more splicing; Tetrahymena group I intron in knt gene, E. coli kanamycin selection, DiMSum; sequences stand for … in CUCUCU…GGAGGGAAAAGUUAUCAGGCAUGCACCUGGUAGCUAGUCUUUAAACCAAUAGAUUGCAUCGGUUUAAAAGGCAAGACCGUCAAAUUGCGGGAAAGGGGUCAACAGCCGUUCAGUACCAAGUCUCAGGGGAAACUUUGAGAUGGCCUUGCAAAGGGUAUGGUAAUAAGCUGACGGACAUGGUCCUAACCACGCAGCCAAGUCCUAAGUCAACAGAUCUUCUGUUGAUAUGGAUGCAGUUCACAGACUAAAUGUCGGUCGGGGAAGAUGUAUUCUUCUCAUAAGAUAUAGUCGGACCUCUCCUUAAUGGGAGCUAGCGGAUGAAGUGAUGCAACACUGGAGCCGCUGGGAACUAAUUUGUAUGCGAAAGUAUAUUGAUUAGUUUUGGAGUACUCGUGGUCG
Setup conditions: 37 °C
Overview of recorded self-splicing fitness (ln) for various sequences

Primary sequence | self-splicing fitness (ln)
CGCUAGCAAUAUUACGAUUG | 0.0898
GGGCAGCAAUAUUACGGUCU | -1.03
CUUUAGCAAUAUUACGGGUG | 0.108
UAGAAGCAAUAUUACGAUCU | -0.261
CCUGAGCAAUAUUACGCAUA | -2.83
GGUAAGCAAUAUUACGGUAU | -1.44
AACGAGCAAUAUUACGAGAU | -3.02
UGAAAGCAAUAUUACGUCCU | -0.195

====

Procedure text: self-splicing fitness, log relative to wild type (ln ratio); higher = more splicing; Tetrahymena group I intron in knt gene, E. coli kanamycin selection, DiMSum; sequences stand for … in CUCUCU…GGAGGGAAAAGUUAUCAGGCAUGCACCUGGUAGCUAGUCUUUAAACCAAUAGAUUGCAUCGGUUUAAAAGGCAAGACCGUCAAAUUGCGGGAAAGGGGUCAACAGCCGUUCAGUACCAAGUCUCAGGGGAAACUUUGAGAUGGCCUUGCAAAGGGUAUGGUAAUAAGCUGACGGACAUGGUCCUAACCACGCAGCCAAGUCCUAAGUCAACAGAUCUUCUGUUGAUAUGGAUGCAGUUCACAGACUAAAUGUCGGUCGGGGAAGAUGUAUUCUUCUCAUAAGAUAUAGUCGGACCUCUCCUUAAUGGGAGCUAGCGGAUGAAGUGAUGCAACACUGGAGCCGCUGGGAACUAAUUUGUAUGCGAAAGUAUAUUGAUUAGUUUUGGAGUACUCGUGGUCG
Setup conditions: 30 °C
Measurement kind: self-splicing fitness (ln)

Primary sequence | Measurement kind | Obs value
UUCUAGCAAUAUUACGAGAU | self-splicing fitness (ln) | -3.95
GCCGAGCAAUAUUACGGGAA | self-splicing fitness (ln) | -1.01
GAUCAGCAAUAUUACGCCAG | self-splicing fitness (ln) | -3.32
GUCCAGCAAUAUUACGGAGA | self-splicing fitness (ln) | -0.714
ACAAAGCAAUAUUACGACAA | self-splicing fitness (ln) | -0.955
ACCGAGCAAUAUUACGCUUA | self-splicing fitness (ln) | -1.56
UAAAAGCAAUAUUACGUCCC | self-splicing fitness (ln) | -2.74
GGUUAGCAAUAUUACGAUGU | self-splicing fitness (ln) | -0.65
AGCAAGCAAUAUUACGAUGC | self-splicing fitness (ln) | -2.08
UUGAAGCAAUAUUACGUUGG | self-splicing fitness (ln) | -1.18
UAGCAGCAAUAUUACGGGGU | self-splicing fitness (ln) | -3.72
UAAUAGCAAUAUUACGAUGG | self-splicing fitness (ln) | -3.31
CAUAAGCAAUAUUACGUUCU | self-splicing fitness (ln) | -3.28
GUGCAGCAAUAUUACGCUUG | self-splicing fitness (ln) | -3.09
CGUCAGCAAUAUUACGUCAG | self-splicing fitness (ln) | -0.465
UGCUAGCAAUAUUACGCACG | self-splicing fitness (ln) | -1.27
GUCCAGCAAUAUUACGUCAC | self-splicing fitness (ln) | -2.41
GCGUAGCAAUAUUACGUCUG | self-splicing fitness (ln) | -3.48
UUGAAGCAAUAUUACGGUUA | self-splicing fitness (ln) | -0.344
UUCGAGCAAUAUUACGCACA | self-splicing fitness (ln) | -1.76
AAUAAGCAAUAUUACGCUUC | self-splicing fitness (ln) | -3.51
AAUCAGCAAUAUUACGCAGU | self-splicing fitness (ln) | -0.402
UGUAAGCAAUAUUACGGUGU | self-splicing fitness (ln) | -3.61
AGUGAGCAAUAUUACGUUGG | self-splicing fitness (ln) | -4.42
UAAUAGCAAUAUUACGGUGG | self-splicing fitness (ln) | -4.08
UGUAAGCAAUAUUACGUCCU | self-splicing fitness (ln) | -0.564
GCCUAGCAAUAUUACGUGUG | self-splicing fitness (ln) | -1.85
UCACAGCAAUAUUACGUCCU | self-splicing fitness (ln) | -3.15
GACUAGCAAUAUUACGGCGA | self-splicing fitness (ln) | -0.738
GGGUAGCAAUAUUACGCCAU | self-splicing fitness (ln) | -2.4
GGCAAGCAAUAUUACGUACC | self-splicing fitness (ln) | -1.35
GUCUAGCAAUAUUACGCCGC | self-splicing fitness (ln) | -3.25
CAUGAGCAAUAUUACGCCGG | self-splicing fitness (ln) | -3.79
GAUCAGCAAUAUUACGCCCA | self-splicing fitness (ln) | -0.563
CAUUAGCAAUAUUACGGUUC | self-splicing fitness (ln) | -3.48
AAUCAGCAAUAUUACGCAUU | self-splicing fitness (ln) | -1.1
AUGCAGCAAUAUUACGAUCC | self-splicing fitness (ln) | -1.78
UAACAGCAAUAUUACGCCGU | self-splicing fitness (ln) | -3.54
GAAAAGCAAUAUUACGGAUA | self-splicing fitness (ln) | -1.32
UGACAGCAAUAUUACGUGUC | self-splicing fitness (ln) | -3.44
CACCAGCAAUAUUACGCACA | self-splicing fitness (ln) | -1.23
UUAGAGCAAUAUUACGGGGA | self-splicing fitness (ln) | -2.48
ACAGAGCAAUAUUACGGUUA | self-splicing fitness (ln) | -2.77
CUUUAGCAAUAUUACGGGCA | self-splicing fitness (ln) | -3.41
CGCCAGCAAUAUUACGGGAG | self-splicing fitness (ln) | -1.92
GCUUAGCAAUAUUACGUAAC | self-splicing fitness (ln) | -0.517
CGUUAGCAAUAUUACGCGUU | self-splicing fitness (ln) | -4.08
AACGAGCAAUAUUACGAUGA | self-splicing fitness (ln) | -3.91
CACUAGCAAUAUUACGCCGA | self-splicing fitness (ln) | -2.8
ACGCAGCAAUAUUACGUUGU | self-splicing fitness (ln) | -3.57
AGAAAGCAAUAUUACGGACC | self-splicing fitness (ln) | -0.299
GAUUAGCAAUAUUACGUUUA | self-splicing fitness (ln) | -2.9
GCCGAGCAAUAUUACGUAUU | self-splicing fitness (ln) | -3.72
GUGUAGCAAUAUUACGCCUU | self-splicing fitness (ln) | -2.63
UGAGAGCAAUAUUACGGGCG | self-splicing fitness (ln) | -2.04
CCAAAGCAAUAUUACGUACG | self-splicing fitness (ln) | -0.00591
GUCGAGCAAUAUUACGACAU | self-splicing fitness (ln) | -0.997
AGGCAGCAAUAUUACGAAAA | self-splicing fitness (ln) | -3.77
AUUAAGCAAUAUUACGAACA | self-splicing fitness (ln) | -1.43
ACUCAGCAAUAUUACGUACG | self-splicing fitness (ln) | -2.58
CUGAAGCAAUAUUACGGUCG | self-splicing fitness (ln) | 0.651
UAACAGCAAUAUUACGAACC | self-splicing fitness (ln) | -2.12
AUCCAGCAAUAUUACGCUAA | self-splicing fitness (ln) | -0.717
UGUAAGCAAUAUUACGGUGC | self-splicing fitness (ln) | -3.82
